Record set: pIC50 | Aurora kinase B (Homo sapiens, UniProt Q96GD4) | literature, multiple sources.
pIC50: −log10 of the molar value.
Classify by measured pIC50: Fulfilled if it is equal to or exceeds 6, Not fulfilled if it is smaller.

Query: Determine whether this compound has pIC50 no lower than 6: `COc1ccc(C(=O)NC(=O)Nc2ccc3c(c2)NC(=O)/C3=C/c2cccs2)cc1`
Response: Fulfilled

Query: Determine whether this compound has pIC50 no lower than 6: `COc1ccc(NC(=O)CC(=O)Nc2ccc3c(c2)NC(=O)/C3=C\c2[nH]c(C)c(C(=O)O)c2C)cc1`
Response: Fulfilled

Query: Determine whether this compound has pIC50 no lower than 6: Cc1cn2c(-c3cn[nH]c3)cnc2c(Nc2cc(C(C)N3C[C@@H](C)O[C@@H](C)C3)ns2)n1 (mixture of isomers)
Response: Fulfilled

New cases:
Query: Determine whether this compound has pIC50 no lower than 6: `CNc1cc(-c2ccc3c(N)n[nH]c3c2)nc(N)n1`
Response: Not fulfilled

Query: Determine whether this compound has pIC50 no lower than 6: CCOC(=O)c1[nH]cc2c1NC1=C(C(=O)CNC1)C2c1ccc(Sc2nc3cccc(Cl)c3[nH]2)o1 (racemic)
Response: Fulfilled

Query: Determine whether this compound has pIC50 no lower than 6: `CCn1cc(-c2ccnc3[nH]c(C(=O)NCCCN4CCN(C)CC4)cc23)c(-c2ccc(NC(=O)Nc3ccccc3)cc2)n1`
Response: Fulfilled

Query: Determine whether this compound has pIC50 no lower than 6: `COCCNC(=O)c1cccc2cc(Oc3ncnc4cc(OC)c(OC)cc34)ccc12`
Response: Fulfilled

Query: Determine whether this compound has pIC50 no lower than 6: COc1cc(C(=O)Nc2ccc(NC(=O)C3CCCCN3)cc2)cc(-c2c[nH]c(=O)[nH]c2=O)c1 (centres undefined)
Response: Not fulfilled

Query: Determine whether this compound has pIC50 no lower than 6: `C[C@H]1CC[C@@H](C(=O)Nc2ccccc2)CN1c1cc(-c2ccc3c(N)n[nH]c3c2)nc(N)n1`
Response: Not fulfilled

---

Record set: IC50 | Aurora kinase B (Homo sapiens) | literature, multiple sources.
Only the number, expressed in nM, is required.

Query: For `CN1CCC(NC(=O)c2ccc(Cn3nc(-c4cnn(C)c4)c4ccccc4c3=O)cc2)CC1` , what is its reported IC50?
Response: 105

Query: For `Cc1ccc(C2=Nc3c(n[nH]c3C)Nc3nc(N4CCCCC4)ncc32)cc1` , what is its reported IC50?
Response: 50.3

Query: For `O=C(Nc1ccc(F)cc1)Nc1cc2c(cc1N1CCOCC1)/C(=C/c1ccc3c(c1)OCO3)C(=O)N2` , what is its reported IC50?
Response: 8200

Query: For `COc1cc(OC)c(F)c(N2Cc3cnc4[nH]c(-c5cnn(C)c5)cc4c3N(C)C2=O)c1F` , what is its reported IC50?
Response: 2.5

Query: For `O=C(NCCCNc1c(Br)cnc2[nH]c(-c3ccc(OCCN4CCCCC4)cc3)nc12)C1CCC1` , what is its reported IC50?
Response: 13

# evaluate next
Query: For `CCn1cc(-c2ccnc3[nH]c(CNCCCN4CCN(C)CC4)cc23)c(-c2ccc(NC(=O)Nc3ccccc3)cc2)n1` , what is its reported IC50?
Response: 83
